Molecular target: HLA-A*0301 (human)
Assay: competition with 125I-labelled probe peptide for purified HLA, gel filtration
property.label: binding affinity ratio (IC50 of standard peptide / IC50 of test peptide)

Kindly note the recorded binding affinity ratio (IC50 of standard peptide / IC50 of test peptide) for VVRRRGRSPR (modifications not checked) [… (HBV NUC 177)] , which is 0.0027

Kindly note the recorded binding affinity ratio (IC50 of standard peptide / IC50 of test peptide) for YLPLDKGIK (modifications not checked) [… (HBV POL 122)] , which is 0.0001

Kindly note the recorded binding affinity ratio (IC50 of standard peptide / IC50 of test peptide) for YLVSFGVWIR (modifications not checked) [… (HBV NUC 118)] , which is 0.0005

Kindly note the recorded binding affinity ratio (IC50 of standard peptide / IC50 of test peptide) for WLQFRNSK (modifications not checked) [WLQFRNSK (HBV POL 314)] , which is -0.0002
